All values here come from the supplement of paper PMC11451515.

Each entry below carries its recorded cell viability.
Tested on: SEM cells
Assay: cell viability relative to DMSO control; higher = less cytotoxic
Settings: RPMI 5 mM glucose + 10% FBS; 48 h; 1.71 µM
Give the number; % is assumed, so skip it.

Worked cases, cell viability given:
compound | unit.of.measurement | cell viability
CC1(C)CNc2cc(NC(=O)c3cccnc3NCc3ccncc3)ccc21 | % | 75.4
C[C@]12CC[C@H]3[C@@H](CCC/4=C/C(=O)CC[C@]34C)[C@@H]1CC[C@@H]2O | % | 133
CCN(C(=O)C/1=C(O)/C2=C(C=CC=C2Cl)N(C)C1=O)C3=CC=CC=C3 | % | 14.4

// moving on: another record for cell viability
// cell viability lookup, key: CC/1=C(/C(CC(=O)N1)C2=CC=C(C=C2)C(F)(F)F)C(=O)NC3=C(F)C=C4[NH]N=CC4=C3 (stereo unspecified) 92

====

Tested on: P12-Ichikawa
Test: AUC of viability dose-response curve (% viability x log10 dose units); higher = less sensitive
Conditions: HPLM + 10% dialyzed FBS; 48 h
Measured AUC of viability dose-response curve of individual entries
A bare number is all that is needed in reply.

compound | observed.measurement
CC/1=C(/C(CC(=O)N1)C2=CC=C(C=C2)C(F)(F)F)C(=O)NC3=C(F)C=C4[NH]N=CC4=C3 (stereo not given) | 442
CCN(CC)CCCCNc1ncc2c(n1)N(C)C(=O)N(c1c(Cl)c(OC)cc(OC)c1Cl)C2 | 450

Form field: reported AUC of viability dose-response curve of COc1ccc(Nc2nccc(NCCO)n2)cc1 395

Please give the result for CC(=O)NCCC(=O)N[C@@H](CCC(N)=O)C(=O)N[C@@H](CO)C(=O)N[C@@H](CCC(N)=O)C(=O)N[C@@H](CCC(N)=O)C(=O)N[C@H](C(=O)N[C@@H](Cc1ccccc1)C(=O)N[C@]1(C)CCCCCC/C=C\CCC[C@@](C)(C(=O)N[C@@H](CCC(N)=O)C(=O)N[C@@H](CC(N)=O)C(N)=O)NC(=O)[C@H](CC(C)C)NC(=O)[C@H](CC(C)C)NC(=O)[C@@H](CCCNC(=N)N)NC(=O)[C@H](Cc2c[nH]c3ccccc23)NC(=O)[C@H](CC(C)C)NC(=O)[C@H](CC(N)=O)NC1=O)[C@H](C)O too. 461

Would you kindly repeat that for CC(C)c1cnn2c(NCc3ccccc3)cc(NCCCCCCN)nc12 ? 464

Another compound to check: c1ccc(CNc2nc(N3CCOc4ccccc43)nc3c2CCCC3)cc1 461

Likewise for Cc1cc(Nc2nc(N[C@@H](C)c3ccc(F)cc3)c(C#N)cc2F)n[nH]1 ? 396

Note, next up: CC(C)c1cc(C(=O)N2Cc3ccc(CN4CCN(C)CC4)cc3C2)c(O)cc1O 374

Another compound to look at: CN1C(=O)C[C@H](C(=O)N[C@@H](Cc2cnc[nH]2)C(=O)N2CCC[C@H]2C(N)=O)NC1=O 462

Input COC1=CC=CC(=C1N)\C2=C\C(=O)C3=C(O2)C=CC=C3 469

====

System: SEM cells
Test: AUC of viability dose-response curve (% viability x log10 dose units); higher = less sensitive
Conditions: HPLM + 10% dialyzed FBS; 48 h
property: AUC of viability dose-response curve
Write the number on its own, no unit after it.

compound | AUC of viability dose-response curve
O=C1Nc2ccc(I)cc2/C1=C/c1cc(Br)c(O)c(Br)c1 | 466
COc1cc2nc(N3CCN(C(=O)C4CCCO4)CC3)nc(N)c2cc1OC (centres undefined) | 430
CC(C)(C)c1cnc(CSc2cnc(NC(=O)C3CCNCC3)s2)o1 | 297

AUC of viability dose-response curve lookup needed for O=C(O)CCn1c2c(c3ccccc31)C[C@H](N[S+](=O)([O-])c1ccc(F)cc1)CC2 , thanks. 471

Next compound: Cc1cc2c(cc1C1(c3ccc(C(=O)O)cn3)CC1)C(C)(C)CCC2(C)C 458

Please answer likewise for Cc1cc(C(=O)N2CCN(c3cccc(Cl)c3)CC2)n(-c2ccccc2)n1 354

====

Tested on: P12-Ichikawa
Assay: cell viability relative to DMSO control; higher = less cytotoxic
Details: HPLM + 10% dialyzed FBS; 48 h; 0.000781 µM
property: cell viability (%)
Return type: number; implicit unit %.

Some solved cases for reference:
compound | cell viability / %
COC1=C2C[C@@H](C)C[C@H](OC)[C@H](O)[C@@H](C)/C=C(\C)[C@H](OC(N)=O)[C@@H](OC)/C=C/C=C(\C)C(=O)NC(=CC1=O)C2=O | 114
CC(C)c1ccc(Cn2ccc3c4c(N)nc(NC5CC5)nc4ccc32)cc1 | 110

Which value of cell viability has been reported for Cc1cc(Nc2cc(CN3CCOCC3)c3nc(C)c(Cc4ccc(Cl)cc4F)n3n2)[nH]n1 in the records? 112

What do we get for COc1cc2nc(N3CCN(C(=O)C4CCCO4)CC3)nc(N)c2cc1OC (stereo unspecified) ? 112

Next up: CN(C)CCN(C)C(=O)c1ccc(NC(=O)Nc2ccc(-c3nc(N4CCOCC4)c4ccn(CC(F)(F)F)c4n3)cc2)cc1 114

Note, next up: COc1cccc([C@@H](C)NCCCc2ccccc2Cl)c1 93.8

Same read-out for COC1=CC=C(C=C1O)C/2=C/C(=O)C3=C(O2)C=C(O)C=C3O ? 96.2

Follow-up entry: CC[C@]12\C=C/CN3CC[C@]4([C@@H](N(C)C5=CC(=C(C=C45)[C@]6(C[C@H]7C[C@H](CN(C7)CC8=C6[NH]C9=C8C=CC=C9)C(C)(F)F)C(=O)OC)OC)[C@](O)([C@@H]1OC(C)=O)C(=O)OC)[C@H]23 91.9

And what about the compound Cc1cc(Nc2nc(N[C@@H](C)c3ccc(F)cc3)c(C#N)cc2F)n[nH]1 ? 105

====

System: NOMO1
Assay: cell viability relative to DMSO control; higher = less cytotoxic
Settings: HPLM + 10% dialyzed FBS; 48 h; 0.569 µM
property: cell viability (%)
Provide the reading as a plain figure in %.

structure.notation | cell viability, %
O=C(Nc1ncc(-c2cc(C(F)F)nn2-c2c(Cl)cccc2Cl)s1)C1CC1 | 137
CO/C1=C/C(C)=C\[C@@H](C)[C@@H](O)[C@@H](C)C/C(C)=C\C=C/[C@H](OC)[C@@H]([C@@H](C)[C@@H](O)[C@H](C)[C@@]2(O)C[C@@H](O)[C@H](C)[C@@H](C(C)C)O2)OC1=O | 12.7
O=C(c1ccc(F)c(F)c1Nc1ccc(I)cc1F)N1CC(O)([C@@H]2CCCCN2)C1 | 56.4

Please look at the following molecule next.
Form field - read-out: cell viability; system: NOMO1; submitted item: CN1\N=C(N)/C2=C[N]([C@@H]3O[C@H](CO[P](O)(O)=O)[C@@H](O)[C@H]3O)C4=C2C1=NC=N4 74.6

====

Test system: NOMO1
Assay: cell viability relative to DMSO control; higher = less cytotoxic
Details: HPLM + 10% dialyzed FBS; 48 h; 0.19 µM
property: cell viability (%)
Dear colleague, please return just the value in %, with no unit written.

Here are 3 molecules together with their reported answers.
molecule | cell viability, %
C[C@H]1[C@@H](C(=O)C[C@H]2O[C@@H]3O[C@]4(C)CC[C@H]5[C@H](C)CC[C@@H]([C@H]2C)[C@@]35OO4)O[C@@H]2O[C@]3(C)CC[C@H]4[C@H](C)CC[C@@H]1[C@@]24OO3 | 115
CCN(C(=O)C/1=C(O)/C2=C(C=CC=C2Cl)N(C)C1=O)C3=CC=CC=C3 | 84
CC1(N2CCC(n3c([C@@H]4CCCNC4)nc4ccccc43)CC2)CCCCCCC1 | 116

GET /values?readout=cell viability&item= C/C(O)=C(\C#N)C(=O)Nc1cc(Br)ccc1Br 104

Proceed to COc1ncnc(N[S+](=O)([O-])c2ccc(N)cc2)c1OC 123

Similarly, COc1cccc([C@@H](C)NCCCc2ccccc2Cl)c1 ? 113

Consider next the molecule Oc1cccc(-c2nc(N3CCOCC3)c3oc4ncccc4c3n2)c1 in the same way. 107

Then CCC(=C/[C@H](C)C/C=C/C(C)=C/[C@@H](C)C(=O)[C@@H](C)[C@H](O)[C@@H](C)C/C(C)=C/C(=O)O)/C=C/[C@@H]1OC(=O)C=C[C@@H]1C ? 123

Could you do the same for Cc1ccc([S+](=O)([O-])Nc2nc3ccccc3nc2Nc2ccc3nsnc3c2)cc1 , please? 110

Next up: CN1C(=O)C[C@H](C(=O)N[C@@H](Cc2cnc[nH]2)C(=O)N2CCC[C@H]2C(N)=O)NC1=O 125

Next molecule: CN1CCCC(CC1)N2\N=C(CC3=CC=C(Cl)C=C3)/C4=C(C=CC=C4)C2=O (centres undefined) 125

Please do the same for CN(C)CCOc1ccc(-c2nc(-c3ccncc3)c(-c3ccc4c(c3)CC/C4=N\O)[nH]2)cc1 as well. 129
